test system: Streptococcus sp.; experiment: In vitro antibacterial evaluation: minimum inhibitory concentration (MIC), broth dilution method; type: cell-based; conditions: Streptococcus pneumoniae (GC 1894); 18 hours at 35° C.
Recorded measurements of MIC Streptococcus pneumoniae (GC 1894), one per entry
MEASURED_PROPERTY: MIC Streptococcus pneumoniae (GC 1894) (µg/mL)

[
  {
    "MOLECULE": "CC(c1ccccc1)C1NC(=O)CNC(=O)C(CO)NC(=O)C(C(O)C2CNC(=N)N2C2OC(CO)C(O)C(O)C2O)NC(=O)C(C(O)C2CNC(=N)N2)NC(=O)C(Cc2ccc(OC3OC(CO)C(OC4OC(COCc5cccs5)C(O)C(O)C4O)C(O)C3O)cc2)NC1=O (stereo not shown)",
    "ASSAY_SYSTEM": "Streptococcus sp.",
    "READOUT_UNITS": "µg/mL",
    "OPERATOR_SYMBOL": "=",
    "RECORDED_RESULT": 0.5
  },
  {
    "MOLECULE": "CC(c1ccccc1)C1NC(=O)CNC(=O)C(CO)NC(=O)C(C(O)C2CNC(=N)N2C2OC(CO)C(O)C(O)C2O)NC(=O)C(C(O)C2CNC(=N)N2)NC(=O)C(Cc2ccc(OC3OC(CO)C(OC4OC(CO)C(O)C(OCc5ccc(OCc6ccccc6)cc5)C4O)C(O)C3O)cc2)NC1=O (stereo not shown) [Example 231c]",
    "ASSAY_SYSTEM": "Streptococcus sp.",
    "READOUT_UNITS": "µg/mL",
    "OPERATOR_SYMBOL": "<",
    "RECORDED_RESULT": 0.12
  },
  {
    "MOLECULE": "COc1ccc2cc(COC3C(CO)OC(OC4C(CO)OC(Oc5ccc(CC6NC(=O)C(C(C)c7ccccc7)NC(=O)CNC(=O)C(CO)NC(=O)C(C(O)C7CNC(=N)N7C7OC(CO)C(O)C(O)C7O)NC(=O)C(C(O)C7CNC(=N)N7)NC6=O)cc5)C(O)C4O)C(O)C3O)ccc2c1 (stereo not shown) [Example 230a]",
    "ASSAY_SYSTEM": "Streptococcus sp.",
    "READOUT_UNITS": "µg/mL",
    "OPERATOR_SYMBOL": "<",
    "RECORDED_RESULT": 0.06
  },
  {
    "MOLECULE": "CCCCN1CC(C(O)C2NC(=O)C(C(O)C3CNC(=N)N3)NC(=O)C(Cc3ccc(OC4OC(CO)C(OC5OC6COC7(OC6C(O)C5O)C5CC6CC(C5)CC7C6)C(O)C4O)cc3)NC(=O)C(C(C)c3ccccc3)NC(=O)CNC(=O)C(CO)NC2=O)N(C2OC(CO)C(O)C(O)C2O)C1=N (stereo not shown)",
    "ASSAY_SYSTEM": "Streptococcus sp.",
    "READOUT_UNITS": "µg/mL",
    "OPERATOR_SYMBOL": "<",
    "RECORDED_RESULT": 0.12
  },
  {
    "MOLECULE": "CC(c1ccccc1)C1NC(=O)CNC(=O)C(CO)NC(=O)C(CC2CNC(=N)N2C2OC(CO)C(O)C(O)C2O)NC(=O)C(CC2CNC(=N)N2)NC(=O)C(Cc2ccc(OC3OC(CO)C(OC4OC5COC6(OC5C(O)C4O)C4CC5CC(C4)CC6C5)C(O)C3O)cc2)NC1=O (stereo not shown)",
    "ASSAY_SYSTEM": "Streptococcus sp.",
    "READOUT_UNITS": "µg/mL",
    "OPERATOR_SYMBOL": "=",
    "RECORDED_RESULT": 1
  },
  {
    "MOLECULE": "COc1ccc2cc(COC3C(CO)OC(OC4C(CO)OC(Oc5ccc(CC6NC(=O)C(C(C)c7ccccc7)NC(=O)CNC(=O)C(CO)NC(=O)C(CC7CNC(=N)N7C7OC(CO)C(O)C(O)C7O)NC(=O)C(CC7CNC(=N)N7)NC6=O)cc5)C(O)C4O)C(O)C3O)ccc2c1 (stereo not shown) [Example 245a]",
    "ASSAY_SYSTEM": "Streptococcus sp.",
    "READOUT_UNITS": "µg/mL",
    "OPERATOR_SYMBOL": "<",
    "RECORDED_RESULT": 0.12
  },
  {
    "MOLECULE": "CC(c1ccccc1)C1NC(=O)CNC(=O)C(CO)NC(=O)C(C(O)C2CN(c3nc4ccccc4o3)C(=N)N2C2OC(CO)C(O)C(O)C2O)NC(=O)C(C(O)C2CNC(=Nc3nc4ccccc4o3)N2)NC(=O)C(Cc2ccc(OC3OC(CO)C(OC4OC5COC6(OC5C(O)C4O)C4CC5CC(C4)CC6C5)C(O)C3O)cc2)NC1=O (stereo not shown)",
    "ASSAY_SYSTEM": "Streptococcus sp.",
    "READOUT_UNITS": "µg/mL",
    "OPERATOR_SYMBOL": "=",
    "RECORDED_RESULT": 32
  }
]

All values here come from patent US8247211B2.
